assay target: HIV-1LAI envelope gp120 labeled with radioactive iodine (HIV-1 LAI), P03377
experiment summary: 125I-gp120, peptide array
For each entry below, report its counts minus background (counts per 20 min) value.

Ask: Respond only with counts minus background (counts per 20 min) recorded for GLNNCSSSNRLDQAMQVT (modifications not checked) [CCR5 265-282]
Result: -31

Ask: Please report the measured counts minus background (counts per 20 min) for IIKQGCEFENTVHKWISI (modifications not checked) [CXCR4 269-286]
Result: 106

Ask: Dear colleague, please send me the reported counts minus background (counts per 20 min) for IPDFIFANVSEADDRYIC (modifications not checked) [CXCR4 169-186] when you can.
Result: 438

Ask: In one line, give reported counts minus background (counts per 20 min) of the entry RNYLLVFFQKHIAKRFCK (modifications not checked) [CCR5 305-322] .
Result: 65

Ask: Write down counts minus background (counts per 20 min) measured for item LNPILYAFLGAKFKTSAQ (modifications not checked) [CXCR4 297-314]
Result: 274

Ask: Hello, please tell me recorded counts minus background (counts per 20 min) for this one: TDIYLLNLAISDLFFLLT (modifications not checked) [CCR5 65-82]
Result: 38

Ask: Give the measured counts minus background (counts per 20 min) for ENTVHKWISITEALAFFH (modifications not checked) [CXCR4 277-294]
Result: 315

Ask: Consider the binder CKCCSIFQQEAPERASSV (modifications not checked) [CCR5 321-338] and give its recorded counts minus background (counts per 20 min).
Result: 53

Ask: Look up and report measured counts minus background (counts per 20 min) for this entry: SVYTRSTGEQEISVGL (modifications not checked) [CCR5 337-352]
Result: 47

Ask: Using known records, supply counts minus background (counts per 20 min) for GLHYTCSSHFPYSQYQFW (modifications not checked) [CCR5 173-190]
Result: 301

Ask: Give reported counts minus background (counts per 20 min) value for GNTMCQLLTGLYFIGFFS (modifications not checked) [CCR5 97-114]
Result: 941

Ask: Dear colleague, please send me the reported counts minus background (counts per 20 min) for QKHIAKRFCKCCSIFQQE (modifications not checked) [CCR5 313-330] when you can.
Result: 23

Ask: Given FISLDRYLAIVHATNSQR (modifications not checked) [CXCR4 129-146] , respond with its counts minus background (counts per 20 min).
Result: 91

Ask: Provide only the value of recorded counts minus background (counts per 20 min) for IYDINYYTSEPCQKINVK (modifications not checked) [CCR5 9-26]
Result: 228

Ask: Please report counts minus background (counts per 20 min) for the following binder: KRGGHSSVSTESESSSFH (modifications not checked) [CXCR4 333-350]
Result: 167

Ask: Identify the reported counts minus background (counts per 20 min) for the following entry. LYAFLGAKFKTSAQHALT (modifications not checked) [CXCR4 301-318]
Result: 156

Ask: Tell me counts minus background (counts per 20 min) reported for LGMTHCCINPIIYAFVGE (modifications not checked) [CCR5 285-302]
Result: 282

Ask: Please look at this binder and report its counts minus background (counts per 20 min): YQKKLRSMTDKYRLHLSV (modifications not checked) [CXCR4 65-82]
Result: 99

Ask: Given the binder FSGIFFIILLTIDRYLAV (modifications not checked) [CCR5 113-130] , write its reported counts minus background (counts per 20 min).
Result: 83

Ask: Find the measured counts minus background (counts per 20 min) of TEEMGSGDYDSMKEPCFR (modifications not checked) [CXCR4 13-30] and report it.
Result: 41

Ask: Let me know recorded counts minus background (counts per 20 min) for ILKTLLRCRNEKKRHRAV (modifications not checked) [CCR5 217-234] , thanks.
Result: 19
